# Tested on: […]
# Test Description: Macrocyclization reaction, final product ratios by LC-ESI MS ion counts
# Format: biochemical
# Study Conditions: 100 μM peptide, 50 μM enzyme, 120 h at 37° C.
List of Linear ion count (%) (M + H = 717) values.
Number in %, nothing else.

Molecule: PatGmac K598D (protein) GEDEIESAGVSASEVESSATKQKVALHPHDLDERIPGLADLHNQTLGDPQITIVIIDGDPDYTLSCFEGAEVSKVFPYWHEPAEPITPEDYAAFQSIRDQGLKGKEDEEALEAVIPDTKDRIVLNDHACHVTSTIVGQEHSPVFGIAPNCRVINMPQDAVIRGNYDDVMSPLNLARAIDLALELGANIIHCAFCRPTQTSEGEEILVQAIKKCQDNNVLIVSPTGNNSNESWCLPAVLPGTLAVGAAKVDGTPCHFSNWGGNNTKEGILAPGEEILGAQPCTEEPVRLTGTSMAAPVMTGISALLMSLQVQQGKPVDAEAVRTALLKTAIPCDPEVVEEPERCLRGFVNIPGAMKVLFGQ
Quantity Name: Linear ion count (%) (M + H = 717)
Unit Symbol: %
Endpoint Result: 100

Molecule: PatGmac R589D K594D K598D (protein) GEDEIESAGVSASEVESSATKQKVALHPHDLDERIPGLADLHNQTLGDPQITIVIIDGDPDYTLSCFEGAEVSKVFPYWHEPAEPITPEDYAAFQSIDDQGLDGKEDEEALEAVIPDTKDRIVLNDHACHVTSTIVGQEHSPVFGIAPNCRVINMPQDAVIRGNYDDVMSPLNLARAIDLALELGANIIHCAFCRPTQTSEGEEILVQAIKKCQDNNVLIVSPTGNNSNESWCLPAVLPGTLAVGAAKVDGTPCHFSNWGGNNTKEGILAPGEEILGAQPCTEEPVRLTGTSMAAPVMTGISALLMSLQVQQGKPVDAEAVRTALLKTAIPCDPEVVEEPERCLRGFVNIPGAMKVLFGQ
Quantity Name: Linear ion count (%) (M + H = 717)
Unit Symbol: %
Endpoint Result: 6

Field request: Linear ion count (%) (M + H = 717) | item: PatGmac K594D (protein) GEDEIESAGVSASEVESSATKQKVALHPHDLDERIPGLADLHNQTLGDPQITIVIIDGDPDYTLSCFEGAEVSKVFPYWHEPAEPITPEDYAAFQSIRDQGLDGKEKEEALEAVIPDTKDRIVLNDHACHVTSTIVGQEHSPVFGIAPNCRVINMPQDAVIRGNYDDVMSPLNLARAIDLALELGANIIHCAFCRPTQTSEGEEILVQAIKKCQDNNVLIVSPTGNNSNESWCLPAVLPGTLAVGAAKVDGTPCHFSNWGGNNTKEGILAPGEEILGAQPCTEEPVRLTGTSMAAPVMTGISALLMSLQVQQGKPVDAEAVRTALLKTAIPCDPEVVEEPERCLRGFVNIPGAMKVLFGQ
71
